Target system: recombinant 4.1R^135 (135kDa isoform of protein 4.1R) (human, UniProt P11171 1-864)
Sequence (P11171 whole entry, canonical isoform): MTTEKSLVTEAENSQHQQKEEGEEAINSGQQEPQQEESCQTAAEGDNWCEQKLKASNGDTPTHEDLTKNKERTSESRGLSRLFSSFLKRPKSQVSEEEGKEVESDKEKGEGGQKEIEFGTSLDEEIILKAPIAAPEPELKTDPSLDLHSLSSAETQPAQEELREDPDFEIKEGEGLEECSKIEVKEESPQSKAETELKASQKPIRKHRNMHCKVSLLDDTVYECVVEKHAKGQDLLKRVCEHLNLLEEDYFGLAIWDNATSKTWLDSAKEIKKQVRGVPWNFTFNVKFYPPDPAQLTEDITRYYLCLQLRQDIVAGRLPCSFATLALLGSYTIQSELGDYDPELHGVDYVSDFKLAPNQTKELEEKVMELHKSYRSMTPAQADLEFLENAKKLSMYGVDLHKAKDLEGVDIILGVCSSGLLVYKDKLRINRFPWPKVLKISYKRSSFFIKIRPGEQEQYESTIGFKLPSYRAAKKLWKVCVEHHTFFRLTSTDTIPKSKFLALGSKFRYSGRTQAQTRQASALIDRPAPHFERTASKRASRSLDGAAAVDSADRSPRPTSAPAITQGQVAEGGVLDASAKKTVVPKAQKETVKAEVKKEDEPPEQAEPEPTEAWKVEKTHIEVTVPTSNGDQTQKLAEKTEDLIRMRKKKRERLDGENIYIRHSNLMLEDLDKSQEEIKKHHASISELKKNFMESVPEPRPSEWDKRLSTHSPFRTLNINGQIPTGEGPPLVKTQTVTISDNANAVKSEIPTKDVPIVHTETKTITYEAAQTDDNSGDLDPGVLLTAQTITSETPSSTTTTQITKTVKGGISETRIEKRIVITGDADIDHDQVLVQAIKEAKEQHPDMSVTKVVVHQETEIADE
Assay details: resonant mirror detection

| Binder | Kd (nM) |
| --- | --- |
| cytoplasmic domain of CD44 (domain or fragment, UniProt P16070 671-742, looked up) NSRRRCGQKKKLVINSGNGAVEDRKPSGLNGEASKSQEMVHLVNKESSETPDQFMTADETRNLQNVDMKIGV | 329 |
